- MEASUREMENT TARGET: Egr1/Zif268 ZnF1-3 (Homo sapiens)
- TEST METHOD NOTES: fluorescence polarization
- SETUP CONDITIONS: 5caC at C9 of strand 1; 5mC at C3 of strand 1 and C3, C9 of strand 2; FP: 5 nM FAM-dsDNA, 300 mM NaCl (200 mM in Fig 4E), 20 mM Tris-HCl pH 7.5, 5% glycerol, 0.5 mM TCEP, 25 C, 10 min
pKd: −log10 of the molar value.
READOUT NAME: pKd

Query: # query: pKd of entry AGCGTGGGCGT / TACGCCCACGC [5caCx1]
Response: < 4.92
